Taken from PubChem BioAssay (NCATS).

test.description: qHTS drug screen for cell cycle checkpoint inhibitors in PARPi-resistant BRCA-mutant ovarian cancer cell lines. (AID 1963452)
assay.conditions: PEO1/OlaR viability, CellTiter-Glo luminescence, 96 h; measured here: PEO4 Z-AUC; stronger effect = lower value
Reported Z-AUC is given for each of the following compounds.

[
  {
    "chemical.structure": "C[C@@H]1O[C@@H](O[C@@H]2C=C3CC[C@@H]4[C@H](CC[C@]5(C)[C@@H](c6ccc(=O)oc6)CC[C@]45O)[C@@]3(C)CC2)[C@H](O)[C@H](O)[C@H]1O",
    "Z-AUC": -2.14
  },
  {
    "chemical.structure": "O=C(O)c1nn(Cc2ccc(Cl)cc2Cl)c2ccccc12",
    "Z-AUC": 0.605
  },
  {
    "chemical.structure": "C[C@@H]1CC[C@H]2[C@@H](C)C(=O)O[C@@H]3O[C@@]4(C)CC[C@@H]1[C@]32OO4",
    "Z-AUC": 1.15
  },
  {
    "chemical.structure": "C[C@]12CC[C@H](O)CC1=CC[C@@H]1[C@@H]2CC[C@]2(C)C(=O)CC[C@@H]12",
    "Z-AUC": 0.608
  },
  {
    "chemical.structure": "C[C@@H]1C[C@@H]([C@H](O)CC2CC(=O)NC(=O)C2)C(=O)[C@@H](C)C1",
    "Z-AUC": 0.0418
  }
]
